Source listed as patent US20240207427A1.

tested on: pancreatic cancer cells (BxPC3); assay: In vitro potency (CellTiter-Glo, 96 h), BxPC3; format: cell-based; conditions: Homo sapiens, BXPC-3, 96 h, Table 28; CPT free drugs; pancreatic cancer cells BxPC3; 96 h, CellTiter-Glo; read-out: BxPC3 IC50
measure_name: IC50 (µM)

* CC[C@@]1(O)C(=O)OCc2c1cc1n(c2=O)Cc2c-1nc1cc3c(cc1c2CN)COC3 [Compound 2ak] | 0.088
* CC[C@@]1(O)C(=O)OCc2c1cc1n(c2=O)Cc2c-1nc1cc(F)c(C)c(C3=CCOC3)c1c2CN [Compound 6d] | 0.015
* CC[C@@]1(O)C(=O)OCc2c1cc1n(c2=O)Cc2c-1nc1cc(F)c(C)c(-c3ccc(CO)s3)c1c2CN [Compound 6e] | 0.065
